Hello, the source for this data is patent US20250154169A1, in case you need it.

System: MYB mRNA
Assay: Splicing RT-qPCR assay, MYB canonical (CJ) and alternative (AJ) junction mRNA
Type: cell-based, human
Conditions: Homo sapiens, 24 h, A673 or K562 cells, 24 hours compound treatment, RT-qPCR; read-out: MYB AJ (AC50, increase in alternative junction mRNA)
Where a name gives a salt, the structure may show the parent alone.
PROPERTY LABEL: AC50

Prompt: Specify AC50 for COc1c(NC(=O)c2ccc(N3CCNCC3)c3cn(C)nc23)cc(C)c2nn(C)cc12 and stop.
Completion: 1000 to 10000 nM

Prompt: State its AC50: Cc1cn2cc(NC(=O)c3ccc(N4CCNCC4)c4cn(CC(C)(F)F)nc34)cc(F)c2n1
Completion: 100 to 1000 nM

Prompt: Give me measured AC50, please, for this molecule: CCn1cc2c([C@@]34CCNCC3C4)ccc(C(=O)Nc3cc(F)c4nc(C)cn4c3)c2n1 (stereo partly shown)
Completion: 100 to 1000 nM

Prompt: Quote AC50 reported for Cn1cc2c(N3CCNCC3)ccc(C(=O)Nc3cn[nH]c3)c2n1 please.
Completion: > 10000 nM

Prompt: Query AC50 for COCCn1cc2c(N3CCNCC3)ccc(C(=O)Nc3cc(F)c4nc(C)cn4c3)c2n1 [Compound 292, hydrochloride]
Completion: < 100 nM

Prompt: Hello, please tell me recorded AC50 for this one: Cc1cc(NC(=O)c2ccc(N3CCNCC3)c3cn(C)nc23)c(O)c2cn(C)nc12
Completion: > 10000 nM

Prompt: Name the recorded AC50 of the molecule listed here: Cc1cn2cc(NC(=O)c3ccc(N4CCNCC4)c4cn(C)nc34)ncc2n1
Completion: < 100 nM

Prompt: Identify AC50 associated with the molecule CCn1cc2c(N3CCC(N)(CC)CC3)cc(F)c(C(=O)Nc3cc(F)c4nc(C)cn4c3)c2n1
Completion: < 100 nM

Prompt: Provide AC50 value for the following molecule: Cc1cn2cc(NC(=O)c3ccc(N4CCNCC4)c4cn(C)nc34)cc(C#N)c2n1 [Compound 314, hydrochloride]
Completion: < 100 nM

Prompt: Return AC50 for the following molecule: CCn1cc2c(N(C)C3CCNCC3)ccc(C(=O)Nc3cc(F)c4nc(C)cn4c3)c2n1
Completion: 100 to 1000 nM

Prompt: Complete the entry with AC50 for CCn1cc2c(N3CCNCC3)cc(F)c(C(=O)Nc3cc(F)c4nc(C)cn4c3)c2n1
Completion: < 100 nM

Prompt: Please look at this molecule and report its AC50: CCn1cc2c(N3CC[C@@H](NC)C3)cc(O)c(C(=O)Nc3cc(F)c4nc(C)cn4c3)c2n1
Completion: 1000 to 10000 nM

Prompt: Provide only the value of recorded AC50 for Cc1cn2cc(NC(=O)c3ccc(N4CC[C@@H](NC5CC56CCOCC6)C4)c4cn(C)nc34)cc(F)c2n1 (stereo partly shown)
Completion: 100 to 1000 nM

Prompt: Determine its reported AC50: CCn1cc2c(N3CCN[C@H](CO)C3)ccc(C(=O)Nc3cc(F)c4nc(C)cn4c3)c2n1
Completion: < 100 nM

Prompt: Quote AC50 reported for CN[C@@H]1CCN(c2ccc(C(=O)Nc3nc(OC)c4nc(C)cn4c3F)c3nn(C)cc23)C1 please.
Completion: > 10000 nM

Prompt: For CCn1cc2c(N3CCC(NCC4(O)CC4)CC3)ccc(C(=O)Nc3cc(F)c4nc(C)cn4c3)c2n1 , write its AC50.
Completion: 100 to 1000 nM

Prompt: Output AC50 of Cc1cn2cc(NC(=O)c3ccc(N4CCNC[C@H]4C)c4cn(C)nc34)cc(F)c2n1
Completion: < 100 nM

Prompt: Identify AC50 associated with the molecule C=Cn1cc2c(N3CCC(NCC)CC3)ccc(C(=O)Nc3cc(F)c4nc(C)cn4c3)c2n1
Completion: < 100 nM

Prompt: Return value of AC50 for input Cc1cn2cc(NC(=O)c3ccc(N4CC[C@@H](NCc5cnc(Cl)nc5)C4)c4cn(C)nc34)cc(F)c2n1 , no commentary.
Completion: 100 to 1000 nM

Prompt: Tell me its AC50 given COc1c(NC(=O)c2ccc(N3CCNCC3)c3oc(C)nc23)cn2cc(C)nc2c1F as the entry.
Completion: < 100 nM

Prompt: Look up AC50 of Cc1nc2c(F)cc(NC(=O)c3ccc(N4CCNCC4)c4cn(C)nc34)cn2n1 and report it.
Completion: < 100 nM

Prompt: State, in one line, measured AC50 of CCn1cc2c(N3CCC(NC4CCC4)CC3)ccc(C(=O)Nc3cc(F)c4nc(C)cn4c3)c2n1
Completion: < 100 nM

Prompt: Please give measured AC50 of the following entry: CCOc1nc(NC(=O)c2ccc(N3CC[C@H](NC)C3)c3cn(C)nc23)cn2cc(C)nc12
Completion: 1000 to 10000 nM

Prompt: Give the value of AC50 reported for the following: Cc1cn2cc(NC(=O)c3cc(F)c(N4CCNCC4)c4cn(C)nc34)cc(F)c2n1
Completion: 100 to 1000 nM

Prompt: Annotate the molecule CCn1cc2c(N3CC4(CCCN4)C3)ccc(C(=O)Nc3cc(F)c4nc(C)cn4c3)c2n1 with its measured AC50.
Completion: 1000 to 10000 nM

Prompt: Provide measured AC50 value, entry: Cc1cn2cc(NC(=O)c3ccc(N4CCNCC4)c4cn(CC(O)CO)nc34)cc(F)c2n1 (stereo not shown)
Completion: > 10000 nM

Prompt: Retrieve AC50 measured for CCn1cc2c(N3CC[C@@H](NC4CC4)C3)ccc(C(=O)Nc3cc(F)c4nc(C)cn4c3)c2n1 and print it.
Completion: < 100 nM

Prompt: Answer with the recorded AC50 of CCn1cc2c(N3CC[C@@H](N(C)C)C3)cc(F)c(C(=O)Nc3cc(F)c4nc(C)cn4c3)c2n1 only.
Completion: < 100 nM

Prompt: Given Cc1cn2c(n1)CCC(NC(=O)c1ccc(N3CCNCC3)c3cn(C)nc13)C2 (stereo not shown) , respond with its AC50.
Completion: > 10000 nM

Prompt: // fetch AC50 given entry Cc1cn2cc(NC(=O)c3ccc(N4CC[C@@H](NC56CC(C5)C6)C4)c4cn(C)nc34)cc(F)c2n1
Completion: 1000 to 10000 nM

Prompt: Provide one value: measured AC50 of Cc1cn2cc(NC(=O)c3ccc(N4CCC(C)(N)CC4)c4cn(C)nc34)cc(F)c2n1
Completion: < 100 nM
